Biological target: T1, cynomolgus ICOS-Fc (homodimeric, bivalent) (cynomolgus monkey, UniProt Q9Y6W8 21-140 (human entry))
T1 construct: also called cynoICOS-Fc; cyno ICOS-Fc; not shown: human IgG1 Fc (IgG1 backbone)
T1 chain: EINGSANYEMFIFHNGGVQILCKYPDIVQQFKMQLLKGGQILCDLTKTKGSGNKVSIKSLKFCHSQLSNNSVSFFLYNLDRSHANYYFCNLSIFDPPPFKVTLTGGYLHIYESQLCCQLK
Test: BLI, bivalent binding to homodimeric ICOS-Fc
pKd: −log10 of the molar value.
measure.name: pKd

(Q) pKd for 37A10 (antibody, V domains shown, Armenian hamster monoclonal tested as IgG; also called hamster anti-ICOS 37A10) VH: EVQLVESGGGLVKPGGSLKLSCAASGFTFSDYWMDWVRQAPGKGLEWVGNIDEDGSITEYSPFVKGRFTISRDNVKNTLYLQMNSVKSEDTATYYCTRWGRFGFDSWGQGTLVTVSS VL: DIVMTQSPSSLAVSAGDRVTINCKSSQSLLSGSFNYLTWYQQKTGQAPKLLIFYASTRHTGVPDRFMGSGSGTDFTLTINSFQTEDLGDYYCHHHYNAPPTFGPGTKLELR ?
(A) > 12.00

(Q) What do you get for 35A9 (antibody, V domains shown, Armenian hamster monoclonal tested as IgG; also called hamster anti-ICOS 35A9) VH: EVQLVESGGGLVKPGGSLKLSCAASGFTFSDYWMDWVRQAPGKGLEWVGNIDEDGSIAEYSPFVKGRFTISRDNVKNTLYLQMNSVKSEDTATYYCSRWGRFAFDSWGQGTLVTVSS VL: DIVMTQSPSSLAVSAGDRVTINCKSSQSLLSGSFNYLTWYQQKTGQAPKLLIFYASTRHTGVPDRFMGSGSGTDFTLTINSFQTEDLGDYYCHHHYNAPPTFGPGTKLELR ?
(A) > 12.00

(Q) // repeat for 7F12 (antibody, V domains shown, Armenian hamster monoclonal tested as IgG; also called hamster anti-ICOS 7F12) VH: EVQLVESGGGLVKPGGSLTLSCAASGFTFSDYWMDWVRQGPGKGLEWVGNIDEDGSTTYYAPFVKGRFTISRDNAKKTLYLQMNSVKSEDTATYYCTRWGRYAFDSWGQGTLVTVSS VL: DIVMTQSPSSLAVSPGDKVTINCKSSQSLLSGNYNYLAWYQQKTGQAPKLLIFYASTRHTGVPDRFMGSGSGTDFSLTINSFQTEDLGDYYCQHHYSTPPTFGPGTKLEIK and report
(A) > 12.00
